Source listed as the SangsterLogP compilation.

# experimentNotes: method code SF, from Hansch, C. & Leo, A. (1987). Log P database [Dataset]. Pomona College Medicinal Chemistry Project.
endpoint: logP
// response body must contain only the number

1) O=C(O)C(Cl)(Cl)Cl	1.33
2) COc1cc(OC)c(OC)c2c1CC[C@H](NC(C)=O)c1cc(=O)c(NCc3ccccc3)ccc1-2	3.58
3) CC(=O)n1ccnc1	-0.34
4) COc1ccc2cnccc2c1	2.22
5) CNP(=O)(OC)Oc1ccc(C(C)(C)C)cc1 (stereo unspecified)	2.71
6) C=C(CC(Cl)(Cl)Cl)c1ccccc1	4.56

API: the following record is the query input.
Input: Fill blank: measured logP of the compound `c1cocn1` is ____.
Output: 0.12

* * *

# experimentNotes: method code SF, from Hansch, C. & Leo, A. (1987). Log P database [Dataset]. Pomona College Medicinal Chemistry Project.
endpoint: logP
// response body must contain only the number

Consider the following illustrative entries.
1. O=[N+]([O-])/C=C/c1ccc(Cl)cc1Cl	3.26
2. CN(C)C(=S)NCc1ccccc1	1.59
3. CCC1(c2ccccc2)C(=O)NCNC1=O	0.91
4. OCC(F)(F)C(F)(F)C(F)(F)F	1.81
5. CCCCCCC1OC(=O)c2ccccc21 (stereo not drawn)	3.55

Input: Fill blank: measured logP of the compound `CC(=O)Nc1cccc(OC(=O)CNC(=O)c2ccccc2)c1` is ____.
Output: 1.7

Input: Fill blank: measured logP of the compound `COP(=O)(OC)Oc1ccccc1` is ____.
Output: 1.22

Input: Fill blank: measured logP of the compound `COc1cc(C=NOC(=O)c2cc(OC)c(OC)c(OC)c2)ccc1OCCO` is ____.
Output: 2.7

* * *

logP for assorted compounds
# experimentNotes: method code SF, from Hansch, C. & Leo, A. (1987). Log P database [Dataset]. Pomona College Medicinal Chemistry Project.
// response body must contain only the number

1. COc1cc(S(C)=O)ccc1-c1cn2ccnc(OC)c2n1 (stereo not drawn)	1.49
2. Oc1cccnc1	0.48

API: the following record is the query input.
Input: Fill blank: measured logP of the compound `Clc1nnnn1-c1ccccc1` is ____.
Output: 1.48

* * *

# experimentNotes: method code SF, from Hansch, C. & Leo, A. (1987). Log P database [Dataset]. Pomona College Medicinal Chemistry Project.
endpoint: logP
// response body must contain only the number

1) CCCCC[N+](=O)[O-]	2.01
2) O=S1(=O)N=C(C2CC=CCC2)Nc2ccccc21 (stereo not drawn)	2.05

Input: Fill blank: measured logP of the compound `CC(=O)N(c1ccccc1)c1ccccc1` is ____.
Output: 2.05

* * *

# experimentNotes: method code SF, from Hansch, C. & Leo, A. (1987). Log P database [Dataset]. Pomona College Medicinal Chemistry Project.
endpoint: logP
// response body must contain only the number

1) O=C(O)Cc1ccc(S(=O)(=O)F)cc1	1.86
2) NC(=O)NC1OC(=O)c2ccccc21 (stereo not drawn)	0.49

API: the following record is the query input.
Input: Fill blank: measured logP of the compound `COc1cc(C=NOC(=O)COc2ccccc2)ccc1OCCO` is ____.
Output: 2.1

* * *

# experimentNotes: method code SF, from Hansch, C. & Leo, A. (1987). Log P database [Dataset]. Pomona College Medicinal Chemistry Project.
endpoint: logP
// response body must contain only the number

Consider the following illustrative entries.
1) Nc1ncccn1	-0.22
2) O=NN(CCCl)C(=O)NC1CCC(O)CC1 (stereo not given)	1.11
3) CCC(C)c1ccccc1OCC(=O)O (stereo not given)	3.32
4) NC(=O)c1ccc(I)cc1	1.99
5) CNP(=O)(OC)Oc1ccc(Cl)cc1Cl (stereo not given)	2.41
6) CCOCCCl	0.98
7) NC(=S)NN=Cc1cccc(O)c1	1.61
8) CSc1nccc(O)n1	0.22

Input: Fill blank: measured logP of the compound `N#CN=[N+]([O-])c1ccc(Cl)cc1` is ____.
Output: 2.33

Input: Fill blank: measured logP of the compound `COc1ccccc1N` is ____.
Output: 1.18

Input: Fill blank: measured logP of the compound `Cc1ccccc1C#N` is ____.
Output: 2.21

Input: Fill blank: measured logP of the compound `NC(=O)CI` is ____.
Output: -0.19

Input: Fill blank: measured logP of the compound `c1ccc(-c2cccs2)cc1` is ____.
Output: 3.74

Input: Fill blank: measured logP of the compound COc1ccc2[nH]c(CC(O)c3nc4cc(OC)ccc4[nH]3)nc2c1 (stereo not given) is ____.
Output: 0.76

Input: Fill blank: measured logP of the compound `O=C(CNC(=O)c1ccccc1)Oc1cccc(Cl)c1` is ____.
Output: 3.21
